tested on: Mycobacterium tuberculosis H37Rv; experiment: Alamar blue metabolic readout assay; format: cell-based; conditions: M. tuberculosis H37Rv, 7H12 media
Here the recorded 7H12 MIC is given for each entry.
# unit: µM | format: bare number

COMPOUND: CCc1nc2ccc(Cl)cn2c1C(=O)NCc1ccc(N2CCC(c3ccc(OC(F)(F)F)cc3)CC2)cc1 [Compound Q203, Telacebec, reference compound]
7H12 MIC / µM: 0.0036
//
COMPOUND: [2H]c1c(C([2H])([2H])[2H])c([2H])n2c(C(=O)NCc3ccc(OC(F)(F)F)cc3)c(C)nc2c1[2H]
7H12 MIC / µM: 0.0055
//
COMPOUND: [2H]c1c(C([2H])([2H])[2H])c([2H])n2c(C(=O)NCc3ccccc3Cl)c(C)nc2c1[2H]
7H12 MIC / µM: 0.112
//
COMPOUND: [2H]c1c(C([2H])([2H])[2H])c([2H])n2c(C(=O)NCc3cc(Cl)cc(Cl)c3)c(C)nc2c1[2H]
7H12 MIC / µM: 0.04
//
COMPOUND: [2H]c1c(C([2H])([2H])[2H])c([2H])n2c(C(=O)NCc3cccc(Cl)c3)c(C)nc2c1[2H]
7H12 MIC / µM: 0.0222
//
COMPOUND: [2H]c1c(C([2H])([2H])[2H])c([2H])n2c(C(=O)NCc3ccc(Cl)cc3)c(C)nc2c1[2H]
7H12 MIC / µM: 0.0231
//
COMPOUND: [2H]c1c(C([2H])([2H])[2H])c([2H])n2c(C(=O)NCc3cccc(OC)c3)c(C)nc2c1[2H]
7H12 MIC / µM: 0.105
//
COMPOUND: [2H]c1c(C([2H])([2H])[2H])cn2c(C(=O)NC([2H])([2H])c3ccc(C(F)(F)F)cc3)c(C([2H])([2H])[2H])nc2c1[2H]
7H12 MIC / µM: 0.0067
//
COMPOUND: [2H]c1c(C([2H])([2H])[2H])c([2H])n2c(C(=O)NCc3ccc(OC)cc3)c(C)nc2c1[2H]
7H12 MIC / µM: 0.0354
//
COMPOUND: [2H]c1c(C([2H])([2H])[2H])c([2H])n2c(C(=O)NCc3ccc4c(c3)OCCO4)c(C)nc2c1[2H]
7H12 MIC / µM: 0.0051

Return 7H12 MIC for the following compound: [2H]c1c(C([2H])([2H])[2H])c([2H])n2c(C(=O)NCc3ccc4c(c3)CCCO4)c(C)nc2c1[2H] 0.0072

Return 7H12 MIC for the following compound: [2H]c1c(C([2H])([2H])[2H])c([2H])n2c(C(=O)NCc3cc(F)cc(F)c3)c(C)nc2c1[2H] 0.0124
